The values you see were collected from ChEMBL document CHEMBL2331121.

Reported pEC50 values for the following compounds.
Target Or System: 5-hydroxytryptamine receptor 2A (Homo sapiens)
Sequence (P28223 whole entry): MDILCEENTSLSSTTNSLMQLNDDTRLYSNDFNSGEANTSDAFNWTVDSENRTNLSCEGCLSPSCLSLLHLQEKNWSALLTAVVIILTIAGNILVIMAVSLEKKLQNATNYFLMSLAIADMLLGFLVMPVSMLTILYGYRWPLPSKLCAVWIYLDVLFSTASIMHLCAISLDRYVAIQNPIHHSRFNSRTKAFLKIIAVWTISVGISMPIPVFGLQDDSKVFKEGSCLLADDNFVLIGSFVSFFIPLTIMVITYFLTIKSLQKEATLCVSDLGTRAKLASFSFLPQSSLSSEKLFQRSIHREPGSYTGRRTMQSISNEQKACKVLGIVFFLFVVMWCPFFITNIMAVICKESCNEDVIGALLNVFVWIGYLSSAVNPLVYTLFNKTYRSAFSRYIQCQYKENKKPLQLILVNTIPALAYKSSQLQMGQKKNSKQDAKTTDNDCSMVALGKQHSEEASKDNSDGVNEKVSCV
Assay Explanation: Agonist activity at human 5HT2A receptor expressed in HEK293 cells assessed as accumulation of IP1 incubated for 1 hr at 37 degC followed by 15 mins at RT by TR-FRET assay
Type: functional, cell-based
A value of pEC50 is the negative decimal logarithm of a concentration given in moles per litre.

Reference set (4 entries):
Challenge: GET pEC50 where system = 5-hydroxytryptamine receptor 2A (Homo sapiens) and item = Cn1c2c(c3ccccc31)CCNCC2 [PNU-22394]
Response given: 6.68

Challenge: GET pEC50 where system = 5-hydroxytryptamine receptor 2A (Homo sapiens) and item = "O=c1c2c(on1Cc1ccccc1)CCNCC2"
Response given: 5.62

Challenge: GET pEC50 where system = 5-hydroxytryptamine receptor 2A (Homo sapiens) and item = "Clc1cccc(COc2cncc(N3CCNCC3)n2)c1"
Response given: 6.85

Challenge: GET pEC50 where system = 5-hydroxytryptamine receptor 2A (Homo sapiens) and item = "c1ccc(COc2noc3c2CCNCC3)cc1"
Response given: 5.89

Proceeding to the next compound to report its pEC50.
Challenge: GET pEC50 where system = 5-hydroxytryptamine receptor 2A (Homo sapiens) and item = Clc1cncc(N2CCNCC2)n1 [MK-212]
Response given: 5.92

---

Target Or System: 5-hydroxytryptamine receptor 2C (Homo sapiens, UniProt P28335)
Sequence (P28335 whole entry): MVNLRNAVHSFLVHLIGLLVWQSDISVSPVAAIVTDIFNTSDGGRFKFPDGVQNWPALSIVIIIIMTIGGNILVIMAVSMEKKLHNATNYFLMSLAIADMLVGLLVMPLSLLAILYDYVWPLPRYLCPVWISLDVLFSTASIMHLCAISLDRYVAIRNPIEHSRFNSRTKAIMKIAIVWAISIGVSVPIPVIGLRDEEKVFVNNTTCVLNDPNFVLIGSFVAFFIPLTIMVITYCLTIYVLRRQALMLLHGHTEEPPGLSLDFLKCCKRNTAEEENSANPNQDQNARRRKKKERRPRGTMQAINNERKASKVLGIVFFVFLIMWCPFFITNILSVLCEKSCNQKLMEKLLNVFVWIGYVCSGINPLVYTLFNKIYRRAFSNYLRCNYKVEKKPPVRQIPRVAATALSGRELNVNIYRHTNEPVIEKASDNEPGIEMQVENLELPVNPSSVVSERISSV
Assay Explanation: Agonist activity at human 5HT2C receptor expressed in HEK293 cells assessed as induction of intracellular calcium release measured for 90 secs by fluorescence assay
Assay type: functional, cell-based
Condition Context: read-out: EC50
Result Type: pEC50
A value of pEC50 is the negative decimal logarithm of a concentration given in moles per litre.

Reference set (6 entries):
Challenge: Write down pEC50 measured for item "CCOc1noc2c1CCNCC2"
Response given: 5.52

Challenge: Write down pEC50 measured for item "Clc1cccc(COc2cncc(N3CCNCC3)n2)c1"
Response given: 8.72

Challenge: Write down pEC50 measured for item "c1ccc(COc2noc3c2CCNCC3)cc1"
Response given: 7.00

Challenge: Write down pEC50 measured for item "COc1noc2c1CCNCC2"
Response given: 4.92

Challenge: Write down pEC50 measured for item O=C1Nc2cc(Cl)c(Cl)cc2N2CCNCC12 (centres undefined)
Response given: 8.14

Challenge: Write down pEC50 measured for item "C[C@H](N)Cn1ccc2cc(F)c(Cl)cc21"
Response given: 8.33

---
Challenge: Write down pEC50 measured for item "Clc1cncc(N2CCNCC2)n1"
Response given: 7.55

Challenge: Write down pEC50 measured for item "Cn1c2c(c3ccccc31)CCNCC2"
Response given: 8.11

Challenge: Write down pEC50 measured for item "O=c1c2c(on1Cc1ccccc1)CCNCC2"
Response given: 6.38

---

Target Or System: 5-hydroxytryptamine receptor 2C (Homo sapiens)
Assay Explanation: Agonist activity at human 5HT2C receptor expressed in HEK293 cells assessed as induction of intracellular calcium release by fluorescence assay relative to 5HT
Assay type: functional, cell-based
Reported Emax values for the following compounds.
Numbers only; they are read as %.

Reference set (6 entries):
Challenge: Write down Emax measured for item "C[C@H](N)Cn1ccc2cc(F)c(Cl)cc21"
Response given: 111

Challenge: Write down Emax measured for item "O=c1c2c(on1Cc1ccccc1)CCNCC2"
Response given: 90

Challenge: Write down Emax measured for item "CCOc1noc2c1CCNCC2"
Response given: 67

Challenge: Write down Emax measured for item "Cn1c2c(c3ccccc31)CCNCC2"
Response given: 101

Challenge: Write down Emax measured for item "Clc1cncc(N2CCNCC2)n1"
Response given: 93

Challenge: Write down Emax measured for item O=C1Nc2cc(Cl)c(Cl)cc2N2CCNCC12 (centres undefined)
Response given: 95

---
Challenge: Write down Emax measured for item "COc1noc2c1CCNCC2"
Response given: 80

Challenge: Write down Emax measured for item "c1ccc(COc2noc3c2CCNCC3)cc1"
Response given: 84

Challenge: Write down Emax measured for item "Clc1cccc(COc2cncc(N3CCNCC3)n2)c1"
Response given: 103

---

Reported EC50 values for the following compounds.
Target Or System: UniProt:P28335
Assay Explanation: Agonist activity at human 5HT2C receptor expressed in HEK293 cells assessed as accumulation of IP1 incubated for 1 hr at 37 degC followed by 15 mins at RT by TR-FRET assay
Assay type: functional, cell-based

Reference set (4 entries):
Challenge: Write down EC50 measured for item "Clc1cccc(COc2cncc(N3CCNCC3)n2)c1"
Response given: 8.1 nM

Challenge: Write down EC50 measured for item "O=c1c2c(on1Cc1ccccc1)CCNCC2"
Response given: 1700 nM

Challenge: Write down EC50 measured for item Cn1c2c(c3ccccc31)CCNCC2 [PNU-22394]
Response given: 120 nM

Challenge: Write down EC50 measured for item Clc1cncc(N2CCNCC2)n1 [MK-212]
Response given: 160 nM

Proceeding to the next compound to report its EC50.
Challenge: Write down EC50 measured for item "c1ccc(COc2noc3c2CCNCC3)cc1"
Response given: 230 nM

---

Target Or System: UniProtKB P28335
Assay Explanation: Antagonist activity at human 5HT2C receptor expressed in HEK293 cells assessed as inhibition of 5HT-induced intracellular calcium release measured for 90 secs by fluorescence assay
Type: functional, cell-based
Result Type: Ki (µM)
Numbers only; they are read as µM.

Challenge: Write down Ki measured for item CN1CC2c3ccccc3Oc3ccc(Cl)cc3C2C1 (racemic) [ASENAPINE]
Response given: 0.0025

---
Challenge: Write down Ki measured for item OC(c1ccccc1)C1CCN(CCc2ccccc2)CC1 (configuration not stated) [GLEMANSERIN]
Response given: 10

---

Target Or System: 5-hydroxytryptamine receptor 2A (Homo sapiens)
Assay Explanation: Agonist activity at human 5HT2A receptor expressed in HEK293 cells assessed as induction of intracellular calcium release measured for 90 secs by fluorescence assay
Type: functional, cell-based
Condition Context: hek293; read-out: EC50
Result Type: EC50

Challenge: Write down EC50 measured for item "O=c1c2c(on1Cc1ccccc1)CCCNC2"
Response given: > 1 mM

Challenge: Write down EC50 measured for item "CN1CCc2on(C)c(=O)c2CC1"
Response given: > 1 mM

Challenge: Write down EC50 measured for item "CCn1oc2c(c1=O)CCNC2"
Response given: > 1 mM

---

Target Or System: UniProt P28335
Assay Explanation: Displacement of [3H]mesulergine from human 5HT2C receptor expressed in tsA201 cell membranes after 1 hr by scintillation counting analysis
Result Type: Ki (µM)
Numbers only; they are read as µM.

Reference set (3 entries):
Challenge: Write down Ki measured for item "Clc1cncc(N2CCNCC2)n1"
Response given: 3.4

Challenge: Write down Ki measured for item "CCCn1oc2c(c1=O)CCNCC2"
Response given: 100

Challenge: Write down Ki measured for item "CCOc1noc2c1CCNCC2"
Response given: 100

---
Challenge: Write down Ki measured for item "CCn1oc2c(c1=O)CCNCC2"
Response given: 300

---

Target Or System: 5-hydroxytryptamine receptor 2A (Homo sapiens)
Assay Explanation: biochemical
Format: cell-based, tsA201
Condition Context: read-out: Ki
Description: Displacement of [3H]ketanserin from human 5HT2A receptor expressed in tsA201 cell membranes after 1 hr by scintillation counting analysis
Reported Ki values for the following compounds.
Numbers only; they are read as µM.

Reference set (4 entries):
Challenge: GET Ki where system = 5-hydroxytryptamine receptor 2A (Homo sapiens) and item = "CCCn1oc2c(c1=O)CCNCC2"
Response given: 100

Challenge: GET Ki where system = 5-hydroxytryptamine receptor 2A (Homo sapiens) and item = "CCOc1noc2c1CCNCC2"
Response given: 100

Challenge: GET Ki where system = 5-hydroxytryptamine receptor 2A (Homo sapiens) and item = "c1ccc(COc2noc3c2CCNCC3)cc1"
Response given: 3.3

Challenge: GET Ki where system = 5-hydroxytryptamine receptor 2A (Homo sapiens) and item = "CCn1oc2c(c1=O)CCNCC2"
Response given: 300

Proceeding to the next compound to report its Ki.
Challenge: GET Ki where system = 5-hydroxytryptamine receptor 2A (Homo sapiens) and item = "COc1noc2c1CCNCC2"
Response given: 300
